Recorded values, source PubChem BioAssay AID802.

Assay Explanation: inhibitors of TNFa-induced VCAM1 expression, primary screen, imaging, HUVEC, TNFa stimulus, immunofluorescence (AID 802);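 further: 0% = TNF-stimulated DMSO wells and 100% = unstimulated control wells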
Setup Conditions: HUVEC TNFa-induced VCAM-1 immunofluorescence, high-content imaging; at 2 µM; stronger effect = higher value
Out of some 95,000 compounds screened, about 460 (0.48%) were called active. This excerpt belongs to a sample that is enriched for actives.
Value Type: inhibition (%)

>>> numeric_value("Cc1nnc(SCc2nc3ccccc3nc2C)s1")
-5.5
>>> numeric_value("CCc1ccc(Nc2ncc3c(n2)CC(c2ccco2)CC3=O)cc1 (stereo not given)")
-20.6
>>> numeric_value("O=C(Nc1cc(-c2nn(CC(=O)N3CCCCC3)c(=O)c3ccccc23)ccc1N1CCOCC1)c1ccc(Cl)cc1")
12.6
>>> numeric_value("O=C(CSc1ncnc2c1cnn2CCc1ccccc1)Nc1ccc(F)cc1")
1.7
>>> numeric_value("O=C(Nc1ncc2c(n1)-c1ccccc1OC2)c1ccc(Cl)cc1")
6.1

* * *

Reported inhibition values for the following compounds.
Assay Explanation: inhibitors of TNFa-induced VCAM1 expression, primary screen, imaging, HUVEC, TNFa stimulus, immunofluorescence (AID 802);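 further: 0% = TNF-stimulated DMSO wells and 100% = unstimulated control wells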
Setup Conditions: HUVEC TNFa-induced VCAM-1 immunofluorescence, high-content imaging; at 2 µM; stronger effect = higher value
The whole screen tested about 95,000 compounds, of which about 460 (0.48%) were called active. For the sample, actives were picked, then their nearest neighbours and some compounds at random.
Value Type: inhibition (%)

>>> numeric_value("O=C(c1ccc2c(c1)OCCO2)C1CCN(S(=O)(=O)c2cccc(F)c2)CC1")
-12.7
>>> numeric_value("CCOc1ccc(C(=O)NC2CCN(C(=O)Nc3ccccc3OC)CC2)cc1")
-14.1
>>> numeric_value("Cc1nc([N+](=O)[O-])nn1C12CC3CC(CC(Br)(C3)C1)C2")
11.3
>>> numeric_value("COCCNS(=O)(=O)c1cc(Br)ccc1OC")
-35.9
>>> numeric_value("CC(C)=CC(=O)Nc1nnc(-c2ccc(F)cc2)s1")
6.5
>>> numeric_value("Cc1cccc(C)c1NC1=NC(=S)N(c2ccc(N(C)C)cc2)C1(C)C")
-2.5
>>> numeric_value("CN(CC#CCC(c1ccccc1)c1ccccc1)C(C)(C)C")
5.2
>>> numeric_value("CCc1cc(C(c2ccccc2OC)N2CCOCC2)c(NC(=O)c2ccccc2)s1 (configuration not stated)")
3.5
>>> numeric_value("CCOC(=O)c1c(N=CN(C)C)c(C#N)c2n1CCCC2")
8.7
>>> numeric_value("O=C(Nc1ccccc1)c1ccccc1NC(=O)C(F)(F)F")
-10.4
>>> numeric_value("COc1ccc(C(C(=O)NCc2ccccc2)N(Cc2cccs2)C(=O)c2cnccn2)cc1 (configuration not stated)")
2.9
>>> numeric_value("COC(=O)c1cc(OC)c(OC)cc1NC(=O)CSc1ccc(C)cc1")
-25
>>> numeric_value("COC(=O)c1ccc(S(=O)(=O)N2CCC(c3nc4ccccc4o3)CC2)cc1")
-1.2
>>> numeric_value("CC(C)C(=O)N1CCN(c2nc(-c3ccccc3)c3c(c2C#N)CC(C)(C)OC3)CC1")
36.7
>>> numeric_value("COc1cc(/C=C2\\SC(=S)N(Nc3ncc(C(F)(F)F)cc3Cl)C2=O)cc(OC)c1OC")
14.4
>>> numeric_value("CC(C)c1nc(N2CCOCC2)c(C#N)c2c1COC(C)(C)C2")
-40.7
>>> numeric_value("COc1ccc(Nc2ncc(C(=O)N3CCN(c4ccccc4OC)CC3)c3ccccc23)cc1")
26.1
>>> numeric_value("O=C(Nc1ccccc1)c1nnsc1S(=O)(=O)c1ccc(Cl)cc1")
59.3
>>> numeric_value("Cc1cccc2c(=O)n3c(nc12)CCCCC3")
13.3
>>> numeric_value("O=S(=O)(Cc1cc(Sc2ccccc2)nc(-c2ccccc2)n1)c1ccccc1")
-28.4
>>> numeric_value("CC(C)c1ccc(/C=C/C(=O)NNC(=O)c2cccnc2)cc1")
-5.5
>>> numeric_value("CC1=NN(Cc2ccccc2)C(=O)/C1=C/c1ccc(N(C)C)cc1")
3.7
